System: SK-MEL-2 melanoma
method.summary: NCI-60 one-dose screen, 48 h
experimental.parameters: 10 µM unless noted
Compounds without any hit were thinned out: in the full panel of roughly 83,000, 20% have a hit. Activity calls are given as the source filed them. How the source made its calls: active means growth percent below 10; inactive means the rest.
The categories you may choose from are yes = active, no = inactive

Previously resolved entries follow.
[[record]]
compound = "CCOC(=O)C(=O)C(C(=O)OCC)c1ccccc1 (stereo not drawn)"
class_name = "no"

[[record]]
compound = "Cc1ccc(C2=Nc3c(N)ncnc3NC(c3cccc(Nc4ccnc5cc(C(F)(F)F)ccc45)c3)C2)cc1 (stereo not drawn)"
class_name = "yes"


Q) Outcome logged for Nc1cnc(C(=O)NNc2nc3cc(F)ccc3n3cccc23)cn1 in this assay:
A) no

---

Test system: SNB-75 CNS
method.summary: NCI-60 one-dose screen, 48 h
experimental.parameters: 10 µM unless noted
Compounds without any hit were thinned out: in the full panel of roughly 83,000, 20% have a hit. Calls of active or inactive are those of the source. How the source made its calls: active means growth percent below 10; inactive means the rest.
The categories you may choose from are yes for active, no for inactive

Previously resolved entries follow.
[[record]]
compound = "C=C1C(=O)O[C@H]2[C@H]1CC/C(COC(=O)/C=C\\C(=O)NCc1ccc(Cn3c(=O)sn(CCI)c3=O)cc1)=C\\CC[C@@]1(C)O[C@@H]21"
class_name = "no"

[[record]]
compound = "N#Cc1nc(-c2ccc(F)cc2)oc1S(=O)(=O)N1CCCCC1"
class_name = "no"

[[record]]
compound = "CN(c1cc2ncc(=O)[nH]c2cc1NC(N)=NCc1ccc(Cl)cc1)C1CCCCC1"
class_name = "no"

[[record]]
compound = "COc1ccc(C(=O)/C=C/c2c(C(F)(F)F)nc3ccccn23)cc1OC"
class_name = "yes"

[[record]]
compound = "COc1ccc2[nH]c(C(=O)N3CCN(C(=O)OCc4ccc5c(Cl)cc(Cl)c(O)c5n4)CC3)cc2c1"
class_name = "yes"


Q) Outcome logged for O=C1C(Cl)=C(NCCCCCCNC2=C(Cl)C(=O)c3ccccc3C2=O)C(=O)c2ccccc21 in this assay:
A) no

Q) Then O=C1/C(=C/c2ccccc2O)CC/C1=C\c1ccccc1O ?
A) no

---

System: SK-MEL-2 melanoma
method.summary: NCI-60 one-dose screen, 48 h (100 = growth as untreated, 0 = no growth, -100 = all killed)
experimental.parameters: 10 µM unless noted
About 83,000 compounds went through this panel and 20% of them were active in at least one assay; those are over-represented in the sample as a whole.
Item-by-item account of growth
Response body: numeric value in %, unit text excluded.

[[record]]
compound = "C=C1C(=O)O[C@H]2[C@H]1CC/C(Cn1cc(-c3ccccc3)nn1)=C\\CC[C@@]1(C)O[C@@H]21"
result_type = "growth"
result_number = 6.62

[[record]]
compound = "C1CCC([PH+](C2CCCCC2)C2CCCCC2[PH+](C2CCCCC2)C2CCCCC2)CC1.[Au].[CH-]1CCCCC1C1CCCC[N-]1 (stereo unspecified)"
result_type = "growth"
result_number = -56.6

[[record]]
compound = "Cc1cc(S(=O)(=O)/N=C(\\N)n2nc(C)c(C)c2C)c(SCc2ccccc2)cc1Cl"
result_type = "growth"
result_number = -12.3


Q) Record request: growth value, item CCOC(=O)C1=C(C)NC(=O)NC1c1c(Cl)n(CCCl)c2ccccc12 (stereo unspecified)
A) 106

Q) Then NC(=O)c1c(NC(=O)c2ccc3ccccc3c2)sc2c1CCC(=O)C2 ?
A) 103

Q) Then Cc1cc(C(=O)O)c(C)n1-c1cccc(C(=O)O)c1 ?
A) 18.8

Q) Then CN1C(=O)/C(=C\c2nc([P+](c3ccccc3)(c3ccccc3)c3ccccc3)c(N3CCOCC3)o2)SC1=S ?
A) 71.5

Q) Then O=C(c1ccncc1)N1N=C(c2ccc(Cl)cc2)C[C@H]1c1cn(-c2ccccc2)nc1-c1ccccc1 ?
A) 110

Q) Then N#CSc1c[nH]c2cccc(/C=C/C(=O)/C=C(/C=C/c3cccc4[nH]cc(SC#N)c34)OB(F)F)c12 ?
A) -65

Q) Then CCOC(=O)n1ccn(C)c1=S ?
A) 97.8

Q) Then O=C(CN1C(=O)S/C(=C\C(Cl)=C\c2ccccc2)C1=O)NCCc1ccc(O)cc1 ?
A) 6.1

Q) Then Cn1c(=O)cc2c3c(c(NCCCO)ccc31)C(=O)c1ccccc1-2 ?
A) 73.9
